Test system: cassava microsomes
protocol.notes: Metabolism of amino acids by cassava microsomes
Assay type: biochemical
experimental.conditions: amino acid as substrate
result.type: metabolism / cyanide production by cassava microsomes

structure.notation	endpoint.value
CC[C@H](C)[C@H](N)C(=O)O	cyanide is produced
CC(C)[C@H](N)C(=O)O	cyanide is produced

All figures here come from patent US20030166202A1.
